Data provenance is patent US6723753B2.

target: CETP (Homo sapiens, UniProt P11597); assay: Assay of CETP Inhibition using Purified Components (Reconstituted Buffer Assay); type: biochemical; parameters: made in house; host or cells: CHO cells (serum-free conditioned medium); conditions: Inhibition of CETP activity in reconstituted buffer assay; transfer of [3H]CE from HDL to LDL; read-out: IC50
pIC50: −log10 of the molar value.
Reported pIC50 values for the following compounds.
MEASURED PROPERTY: pIC50

1) OC(CN(Cc1ccc(Oc2ccccc2)cc1)c1cccc(Oc2ccccc2)c1)C(F)(F)F (stereo not shown); 5.40
2) Cc1cccc(CN(CC(O)C(F)(F)F)c2ccc(F)c(C(F)(F)F)c2)c1 (stereo not shown); 4.82
3) OC(CN(Cc1cccc(OC(F)(F)F)c1)c1ccc(-c2ccccc2)cc1)C(F)(F)F (stereo not shown); 5.82

---

Biological target: CETP (Homo sapiens, UniProt P11597)
Sequence (P11597 18-493): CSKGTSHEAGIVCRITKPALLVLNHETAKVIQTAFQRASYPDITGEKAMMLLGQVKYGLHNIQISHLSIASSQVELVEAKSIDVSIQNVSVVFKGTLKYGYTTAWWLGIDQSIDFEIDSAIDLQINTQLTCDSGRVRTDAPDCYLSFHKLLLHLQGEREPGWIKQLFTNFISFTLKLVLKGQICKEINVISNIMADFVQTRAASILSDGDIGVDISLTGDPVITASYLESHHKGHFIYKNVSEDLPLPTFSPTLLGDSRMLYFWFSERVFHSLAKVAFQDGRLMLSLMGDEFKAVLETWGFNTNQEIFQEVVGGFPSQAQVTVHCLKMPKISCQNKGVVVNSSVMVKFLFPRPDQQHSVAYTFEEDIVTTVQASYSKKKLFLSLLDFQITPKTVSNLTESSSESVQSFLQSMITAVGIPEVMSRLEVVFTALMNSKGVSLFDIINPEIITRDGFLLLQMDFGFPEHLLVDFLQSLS
Assay: Assay of CETP Inhibition in Human Plasma
Format: biochemical
Parameters: Blood was obtained from healthy volunteers, recruited from the personnel of Monsanto Company; from tissue; host or cells: human EDTA plasma pool from healthy volunteers
Details: Inhibition of CETP activity in human plasma assay; transfer of [3H]CE from HDL to VLDL and LDL; read-out: IC50
Reported IC50 values for the following compounds.
MEASURED PROPERTY: IC50 (µM)

1) OC(CN(Cc1cccc(OC(F)(F)C(F)F)c1)c1cccc(-c2ccc(F)c(F)c2)c1)C(F)(F)F (stereo not shown); 8
2) OC(CN(Cc1cccc(OC(F)(F)C(F)F)c1)c1cccc(-c2cccc(C(F)(F)F)c2)c1)C(F)(F)F (stereo not shown); 30
3) CCN(c1cccc(C)c1)c1cccc(N(Cc2cccc(OC(F)(F)C(F)F)c2)CC(O)C(F)(F)F)c1 (stereo not shown); 65
4) O=[N+]([O-])c1cccc(-c2cccc(N(Cc3cccc(OC(F)(F)C(F)F)c3)CC(O)C(F)(F)F)c2)c1 (stereo not shown); 49

---

Biological target: CETP (Homo sapiens, UniProt P11597)
Sequence (P11597 18-493): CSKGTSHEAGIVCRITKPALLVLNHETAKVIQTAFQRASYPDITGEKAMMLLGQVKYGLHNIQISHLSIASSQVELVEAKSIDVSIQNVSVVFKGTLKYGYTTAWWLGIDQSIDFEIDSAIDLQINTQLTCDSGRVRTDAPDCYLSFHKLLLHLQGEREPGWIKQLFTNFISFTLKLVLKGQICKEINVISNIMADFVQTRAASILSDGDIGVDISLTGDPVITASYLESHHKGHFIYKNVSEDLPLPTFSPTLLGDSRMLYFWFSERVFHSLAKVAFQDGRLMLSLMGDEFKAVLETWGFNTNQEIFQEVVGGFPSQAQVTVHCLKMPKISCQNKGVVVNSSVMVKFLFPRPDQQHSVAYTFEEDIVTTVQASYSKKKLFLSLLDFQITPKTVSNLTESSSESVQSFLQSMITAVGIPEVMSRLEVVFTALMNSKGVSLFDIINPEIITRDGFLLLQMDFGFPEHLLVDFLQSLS
Experiment: Assay of CETP Inhibition using Purified Components (Reconstituted Buffer Assay)
Type: biochemical
Parameters: made in house; host or cells: CHO cells (serum-free conditioned medium)
Settings: Inhibition of CETP activity in reconstituted buffer assay; transfer of [3H]CE from HDL to LDL; read-out: IC50
Protocol: Assay of CETP Inhibition using Purified Components (Reconstituted Buffer Assay) The ability of compounds to inhibit CETP activity was assessed using an in vitro assay that measured the rate of transfer of radiolabeled cholesteryl ester ([^3H]CE) from HDL donor particles to LDL acceptor particles. […] After filtration, the radioactivity present in the precipitated LDL was measured by liquid scintillation counting. […] Examples of IC50 values determined by these methods are specified in Table 9.
MEASURED PROPERTY: IC50 (µM)

1) CS(=O)(=O)c1ccc(CN(CC(O)C(F)(F)F)c2cccc(Oc3ccccc3)c2)cc1 (stereo not shown); 40
2) CCC(C)c1ccc(Oc2cccc(N(Cc3cccc(OC(F)(F)C(F)F)c3)CC(O)C(F)(F)F)c2)cc1 (stereo not shown); 0.65
3) COc1cc(Nc2cccc(N(Cc3cccc(OC(F)(F)C(F)F)c3)CC(O)C(F)(F)F)c2)cc(OC)c1OC (stereo not shown); 25
4) OC(CN(Cc1cccc(OC(F)(F)C(F)F)c1)c1cccc(CBr)c1)C(F)(F)F (stereo not shown) [514D]; 15

---

molecular target: CETP (Homo sapiens); assay: Assay of CETP Inhibition using Purified Components (Reconstituted Buffer Assay); type: biochemical; set-up: made in house; host or cells: CHO cells (serum-free conditioned medium); details: Inhibition of CETP activity in reconstituted buffer assay; transfer of [3H]CE from HDL to LDL; read-out: IC50
Reported IC50 values for the following molecules.
MEASURED PROPERTY: IC50

1) O=S(=O)(Nc1cccc(N(Cc2cccc(OC(F)(F)C(F)F)c2)CC(O)C(F)(F)F)c1)c1ccc(F)c(Cl)c1 (stereo not shown); > 50 µM
2) CSc1ccccc1NC(=O)N(CC(O)C(F)(F)F)c1cccc(OC(F)(F)F)c1 (stereo not shown); > 100 µM
3) OC(CN(Cc1cccc(OC(F)(F)C(F)F)c1)c1cccc(OCc2ccc(Br)cc2)c1)C(F)(F)F (stereo not shown); 0.49 µM
4) CC(C)(C)Oc1cccc(CN(CC(O)C(F)(F)F)c2cccc(Oc3ccccc3)c2)c1 (stereo not shown); 0.67 µM
5) COc1ccc(N(Cc2ccc(C(F)(F)F)cc2)CC(O)C(F)(F)F)cc1 (stereo not shown); 15 µM
6) OC(CN(Cc1ccc(OC(F)(F)F)cc1)c1ccc(Oc2ccccc2)cc1)C(F)(F)F (stereo not shown); > 100 µM
7) O=S(=O)(CCOc1cccc(N(Cc2cccc(OC(F)(F)C(F)F)c2)CC(O)C(F)(F)F)c1)c1ccccc1 (stereo not shown); 42 µM
8) Cc1ccc(Oc2cccc(N(Cc3cccc(OC(F)(F)F)c3)CC(O)C(F)(F)F)c2)cn1 (stereo not shown); 3.1 µM
9) CC(=O)Oc1cccc(CN(CC(O)C(F)(F)F)c2cccc(OC(F)(F)F)c2)c1 (stereo not shown); 60 µM
10) CC(C)C(=O)Nc1cccc(N(Cc2cccc(OC(F)(F)C(F)F)c2)CC(O)C(F)(F)F)c1 (stereo not shown); > 50 µM
11) OC(c1ccccc1)c1cccc(N(Cc2cccc(OC(F)(F)C(F)F)c2)CC(O)C(F)(F)F)c1 (stereo not shown); 6.4 µM
12) OC(CN(Cc1cccc(OC(F)(F)C(F)F)c1)c1cccc(Oc2cncc(Cl)c2)c1)C(F)(F)F (stereo not shown); 0.5 µM
13) OC(CN(CCCCOc1ccccc1)c1cccc(OC(F)(F)F)c1)C(F)(F)F (stereo not shown); > 100 µM
14) Cc1ccc(CN(Cc2ccc(F)cc2)CC(O)C(F)(F)F)cc1 (stereo not shown); > 100 µM
15) OC(CNc1cccc(Oc2ccccc2)c1)C(F)(F)F (stereo not shown) [588B]; > 100 µM
16) Cc1c(COc2cccc(N(Cc3cccc(OC(F)(F)C(F)F)c3)CC(O)C(F)(F)F)c2)cccc1[N+](=O)[O-] (stereo not shown); 17 µM

---

Reported pIC50 values for the following compounds.
molecular target: CETP (Homo sapiens, UniProt P11597); experiment: Assay of CETP Inhibition using Purified Components (Reconstituted Buffer Assay); format: biochemical; parameters: made in house; host or cells: CHO cells (serum-free conditioned medium); details: Inhibition of CETP activity in reconstituted buffer assay; transfer of [3H]CE from HDL to LDL; read-out: IC50
pIC50: −log10 of the molar value.
MEASURED PROPERTY: pIC50

1) COCc1cccc(N(Cc2cccc(OC(F)(F)C(F)F)c2)CC(O)C(F)(F)F)c1 (centres unmarked) [Example 514C]; 5.18
2) COc1cccc(COc2cccc(N(Cc3cccc(OC(F)(F)C(F)F)c3)CC(O)C(F)(F)F)c2)c1 (centres unmarked); 5.82
3) COc1cccc(-c2cccc(N(Cc3cccc(OC(F)(F)C(F)F)c3)CC(O)C(F)(F)F)c2)c1 (centres unmarked); 5.80
4) OC(CN(Cc1cccc(OC(F)(F)F)c1)c1ccc2c(c1)OCCCO2)C(F)(F)F (centres unmarked); 5.10
5) O=[N+]([O-])c1cccc(-c2cccc(N(Cc3cccc(OC(F)(F)C(F)F)c3)CC(O)C(F)(F)F)c2)c1 (centres unmarked); 6.04
6) OC(CN(Cc1cccc(OC(F)(F)C(F)F)c1)c1cccc(Oc2cc(F)cc(F)c2F)c1)C(F)(F)F (centres unmarked); 6.43
